assay.target: δ-opioid receptor (DOR) (Homo sapiens)
Sequence (P41143 whole entry): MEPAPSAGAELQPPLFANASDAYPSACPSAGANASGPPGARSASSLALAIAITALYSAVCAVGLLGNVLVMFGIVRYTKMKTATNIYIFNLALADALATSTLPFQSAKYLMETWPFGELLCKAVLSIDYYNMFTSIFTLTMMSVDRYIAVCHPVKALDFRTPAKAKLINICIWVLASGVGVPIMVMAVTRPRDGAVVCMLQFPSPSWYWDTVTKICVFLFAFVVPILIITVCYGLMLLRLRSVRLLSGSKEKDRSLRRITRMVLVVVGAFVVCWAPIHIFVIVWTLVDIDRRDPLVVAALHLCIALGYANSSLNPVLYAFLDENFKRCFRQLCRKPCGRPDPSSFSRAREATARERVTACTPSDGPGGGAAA
experimental.details: DOR agonist cAMP assay (HitHunter cAMP, forskolin-stimulated)
pEC50: −log10 of the molar value. Square brackets hold non-standard residues; d marks the D form. Peptide text beside a SMILES is read from it. Bip = N[C@@H](Cc1ccc(-c2ccccc2)cc1)C(=O)O; Phe(4-CN) = N#Cc1ccc(C[C@H](N)C(=O)O)cc1; Dip = N[C@H](C(=O)O)C(c1ccccc1)c1ccccc1; Dmt = Cc1cc(O)cc(C)c1C[C@H](N)C(=O)O; β3hF = N[C@H](CC(=O)O)Cc1ccccc1; N(octyl)Gly = CCCCCCCCNCC(=O)O; Sar = CNCC(=O)O
The entries below come with measured pEC50 values attached.

compound	pEC50
Cc1cc(O)cc(C)c1C[C@H](N)C(=O)N[C@H](CCCNC(=N)N)C(=O)N[C@@H](Cc1ccc(C#N)cc1)C(=O)N(C)CC(N)=O [compound 20] (H-[Dmt][dR][Phe(4-CN)][Sar]-NH2)	> 9.00
Cc1cc(O)cc(C)c1C[C@H](N)C(=O)N[C@H](C)C(=O)NCC(=O)N[C@H](CC(=O)N(CCc1ccccc1)CC(N)=O)Cc1ccccc1	> 9.00
Cc1cc(O)cc(C)c1C[C@H](N)C(=O)N[C@H](C)C(=O)NCC(=O)N[C@H](CC(=O)N(C)CC(=O)O)Cc1ccccc1	> 9.00
Cc1cc(O)cc(C)c1C[C@H](N)C(=O)N(C)[C@@H](CCCNC(=N)N)C(=O)NCC(=O)N[C@H](CC(=O)N(C)CC(N)=O)Cc1ccccc1	6.70 to 7.30
Cc1cc(C(N)=O)cc(C)c1C[C@H](N)C(=O)N[C@H](C)C(=O)NCC(=O)N[C@H](CC(=O)NCC(N)=O)Cc1ccccc1	8.00 to 9.00
Cc1cc(O)cc(C)c1C[C@H](N)C(=O)N[C@H](C)C(=O)NCC(=O)N[C@H](CC(=O)N(CC(N)=O)CC(F)(F)F)Cc1ccccc1	> 9.00
Cc1cc(O)cc(C)c1C[C@H](N)C(=O)N[C@H](CCCNC(=N)N)C(=O)N(C)CC(=O)N[C@@H](Cc1c[nH]c2ccccc12)C(N)=O [compound 35] (H-[Dmt][dR][Sar]W-NH2)	< 6.70
Cc1cc(O)cc(C)c1C[C@H](N)C(=O)N[C@H](C)C(=O)NCC(=O)N[C@H](CC(=O)N(CCC(C)C)CC(N)=O)Cc1ccccc1	> 9.00
CCCC[C@@H](C(=O)O)N(C)C(=O)C[C@H](Cc1ccccc1F)NC(=O)CNC(=O)[C@@H](C)NC(=O)[C@@H](N)Cc1c(C)cc(O)cc1C	> 9.00
Cc1cc(C(N)=O)cc(C)c1C[C@H](N)C(=O)N[C@H](C)C(=O)NCC(=O)N[C@H](CC(=O)N(C)[C@@H](CC(C)C)C(=O)O)Cc1ccccc1	> 9.00
CCCC[C@@H](C(=O)O)N(C)C(=O)C[C@H](Cc1ccc(F)cc1)NC(=O)CNC(=O)[C@@H](C)NC(=O)[C@@H](N)Cc1c(C)cc(O)cc1C	> 9.00
Cc1cc(O)cc(C)c1C[C@H](N)C(=O)N[C@@H](C(=O)NCC(=O)N[C@H](CC(=O)N(C)CC(N)=O)Cc1ccccc1)[C@H](C)O	> 9.00
CCCCCCCCN(CC(N)=O)C(=O)[C@H](Cc1ccccc1)NC(=O)[C@@H](CCCNC(=N)N)NC(=O)[C@@H](N)Cc1c(C)cc(O)cc1C [compound 27] (H-[Dmt][dR]F[N(octyl)Gly]-NH2)	6.70 to 7.30
CCCC[C@@H](C(=O)O)N(C)C(=O)C[C@H](Cc1ccccc1Br)NC(=O)CNC(=O)[C@@H](C)NC(=O)[C@@H](N)Cc1c(C)cc(O)cc1C	> 9.00
Cc1cc(O)cc(C)c1C[C@H](N)C(=O)N[C@H](CCCNC(=N)N)C(=O)NCC(=O)N[C@H](C(N)=O)C(c1ccccc1)c1ccccc1 [compound 33] (H-[Dmt][dR]G[Dip]-NH2)	< 6.70
CCCC[C@@H](C(=O)O)N(C)C(=O)C[C@H](Cc1ccccc1)NC(=O)CNC(=O)[C@@H](C)NC(=O)[C@@H](N)Cc1c(C)cc(C(N)=O)cc1C	> 9.00
Cc1cc(O)cc(C)c1C[C@H](N)C(=O)N[C@H](C)C(=O)N[C@@H](CC(C)C)C(=O)N[C@H](CC(=O)N(C)CC(N)=O)Cc1ccccc1 [compound 67] (H-[Dmt][dA]L[β3hF][Sar]-NH2)	7.30 to 8.00
CCC[C@@H](C(N)=O)N(C)C(=O)C[C@H](Cc1ccccc1)NC(=O)CNC(=O)[C@@H](C)NC(=O)[C@@H](N)Cc1c(C)cc(O)cc1C	> 9.00
Cc1cc(O)cc(C)c1C[C@H](N)C(=O)N[C@H](CCCNC(=N)N)C(=O)NCC(=O)N[C@@H](Cc1c[nH]c2ccccc12)C(N)=O [compound 34] (H-[Dmt][dR]GW-NH2)	7.30 to 8.00
CCCC[C@@H](C(=O)O)N(C)C(=O)C[C@H](Cc1ccc(F)cc1)NC(=O)CNC(=O)[C@@H](C)NC(=O)[C@@H](N)Cc1c(C)cc(C(N)=O)cc1C	> 9.00
Cc1cc(O)cc(C)c1C[C@H](N)C(=O)N[C@H](CCCNC(=N)N)C(=O)N[C@@H](Cc1ccc(-c2ccccc2)cc1)C(=O)N(C)CC(N)=O [compound 23] (H-[Dmt][dR][Bip][Sar]-NH2)	> 9.00

###

assay.target: μ-opioid receptor (MOR) (Homo sapiens, UniProt P35372)
Sequence (P35372 whole entry): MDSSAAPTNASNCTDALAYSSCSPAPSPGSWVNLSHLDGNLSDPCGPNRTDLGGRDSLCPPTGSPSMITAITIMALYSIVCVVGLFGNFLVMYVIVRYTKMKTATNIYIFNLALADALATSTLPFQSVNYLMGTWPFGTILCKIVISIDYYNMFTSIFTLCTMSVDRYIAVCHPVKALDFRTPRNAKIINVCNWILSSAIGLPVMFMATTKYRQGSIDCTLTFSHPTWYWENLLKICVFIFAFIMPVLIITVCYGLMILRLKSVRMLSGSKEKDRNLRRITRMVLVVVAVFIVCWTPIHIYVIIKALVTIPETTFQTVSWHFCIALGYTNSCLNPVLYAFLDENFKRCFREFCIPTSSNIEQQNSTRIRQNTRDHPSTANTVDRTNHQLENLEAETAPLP
experimental.details: MOR agonist cAMP assay (HitHunter cAMP, forskolin-stimulated)
pEC50: −log10 of the molar value. Square brackets hold non-standard residues; d marks the D form. Peptide text beside a SMILES is read from it. Phe(4-F) = N[C@@H](Cc1ccc(F)cc1)C(=O)O; Dmt = Cc1cc(O)cc(C)c1C[C@H](N)C(=O)O; dTic = O=C(O)[C@H]1Cc2ccccc2CN1; β3hF = N[C@H](CC(=O)O)Cc1ccccc1; Sar = CNCC(=O)O

compound	pEC50
CCCC[C@@H](C(=O)O)N(C)C(=O)[C@@H](Cc1ccccc1)N(C)C(=O)CNC(=O)[C@@H](C)NC(=O)[C@@H](N)Cc1c(C)cc(O)cc1C	> 9.00
Cc1cc(O)cc(C)c1C[C@H](N)C(=O)N[C@H](C)C(=O)NC(C)(C)C(=O)N[C@H](CC(=O)N(C)CC(N)=O)Cc1ccccc1	> 9.00
CC[C@H](C)[C@@H](C(=O)O)N(C)C(=O)C[C@H](Cc1ccccc1)NC(=O)CNC(=O)[C@@H](CC(=O)O)NC(=O)[C@@H](N)Cc1c(C)cc(O)cc1C	> 9.00
Cc1cc(C(N)=O)cc(C)c1C[C@H](N)C(=O)N[C@H](Cc1ccc(O)cc1)C(=O)NCC(=O)N[C@H](CC(=O)N(C)CC(N)=O)Cc1ccccc1	> 9.00
CC[C@H](C)[C@@H](C(=O)O)N(C)C(=O)C[C@H](Cc1ccccc1)NC(=O)CNC(=O)[C@@H](C)NC(=O)[C@@H](N)Cc1c(C)cc(C(N)=O)cc1C	> 9.00
Cc1cc(O)cc(C)c1C[C@H](N)C(=O)N[C@H](CCCNC(=N)N)C(=O)N[C@@H](Cc1ccc(F)cc1)C(=O)N(C)CC(N)=O [compound 19] (H-[Dmt][dR][Phe(4-F)][Sar]-NH2)	> 9.00
Cc1cc(O)cc(C)c1C[C@H](N)C(=O)N[C@H](CC(=O)O)C(=O)NCC(=O)N[C@H](CC(=O)N(C)[C@@H](Cc1c[nH]c2ccccc12)C(=O)O)Cc1ccccc1	> 9.00
Cc1cc(C(N)=O)cc(C)c1C[C@H](N)C(=O)N1Cc2ccccc2C[C@H]1C(=O)NCC(=O)N[C@H](CC(=O)N(C)CC(N)=O)Cc1ccccc1	6.70 to 7.30
CCCC[C@@H](C(=O)O)N(C)C(=O)C[C@H](Cc1ccc(O)cc1)NC(=O)CNC(=O)[C@@H](C)NC(=O)[C@@H](N)Cc1c(C)cc(C(N)=O)cc1C	8.00 to 9.00
Cc1cc(C(N)=O)cc(C)c1C[C@H](N)C(=O)N[C@H](C)C(=O)NCC(=O)N[C@H](CC(=O)N(C)[C@@H](C)C(=O)O)Cc1ccccc1	> 9.00
CCCC[C@@H](C(=O)O)N(C)C(=O)C[C@H](Cc1ccccc1C)NC(=O)CNC(=O)[C@@H](C)NC(=O)[C@@H](N)Cc1c(C)cc(O)cc1C	> 9.00
Cc1cc(O)cc(C)c1C[C@H](N)C(=O)N1Cc2ccccc2C[C@@H]1C(=O)NCC(=O)N[C@@H](Cc1ccccc1)C(=O)N(C)CC(N)=O [compound 45] (H-[Dmt][dTic]GF[Sar]-NH2)	> 9.00
CCCC[C@@H](C(=O)O)N(C)C(=O)C[C@H](Cc1ccc(C)cc1)NC(=O)CNC(=O)[C@@H](C)NC(=O)[C@@H](N)Cc1c(C)cc(O)cc1C	8.00 to 9.00
Cc1cc(O)cc(C)c1C[C@H](N)C(=O)N[C@H](C)C(=O)N[C@@H](CC(C)C)C(=O)N[C@H](CC(=O)N(C)CC(N)=O)Cc1ccccc1 [compound 67] (H-[Dmt][dA]L[β3hF][Sar]-NH2)	> 9.00
Cc1cc(O)cc(C)c1C[C@H](N)C(=O)N[C@@H](C(=O)NCC(=O)N[C@H](CC(=O)N(C)[C@@H](C)C(=O)O)Cc1ccccc1)[C@H](C)O	> 9.00
Cc1cc(C(N)=O)cc(C)c1C[C@H](N)C(=O)N[C@H](C)C(=O)NCC(=O)N1Cc2ccccc2C[C@H]1C(=O)N(C)CC(N)=O	8.00 to 9.00
Cc1cc(O)cc(C)c1C[C@H](N)C(=O)N[C@H](C)C(=O)NCC(=O)N[C@H](CC(=O)N(C)[C@H](C(=O)O)c1ccccc1)Cc1ccccc1	> 9.00
Cc1cc(O)cc(C)c1C[C@H](N)C(=O)N[C@H](Cc1ccc(O)cc1)C(=O)NCC(=O)N[C@H](CC(=O)N(C)CC(N)=O)Cc1ccccc1	> 9.00
Cc1cc(O)cc(C)c1C[C@H](N)C(=O)N[C@H](C)C(=O)NCC(=O)N[C@H](CC(=O)N[C@@H](Cc1ccc2ccccc2c1)C(N)=O)Cc1ccccc1	8.00 to 9.00
Cc1cc(C(N)=O)cc(C)c1C[C@H](N)C(=O)N[C@@H](C)C(=O)NCC(=O)N[C@H](CC(=O)N(C)CC(=O)O)Cc1ccccc1	8.00 to 9.00
CCCC[C@@H](C(=O)O)N(C)C(=O)C[C@H](Cc1c[nH]c2ccccc12)NC(=O)CNC(=O)[C@@H](C)NC(=O)[C@@H](N)Cc1c(C)cc(C(N)=O)cc1C	> 9.00
Cc1cc(O)cc(C)c1C[C@H](N)C(=O)N[C@H](C)C(=O)NCC(=O)N[C@H](CC(=O)N(C)[C@@H](C)C(=O)O)Cc1ccccc1	> 9.00
